- System: T1, FLRT3-His monomeric fusion protein (Homo sapiens (Human), UniProt Q9NZU0 29-528)
- T1 construct: also called FLRT3 monomer; not shown: His tag
- T1 sequence: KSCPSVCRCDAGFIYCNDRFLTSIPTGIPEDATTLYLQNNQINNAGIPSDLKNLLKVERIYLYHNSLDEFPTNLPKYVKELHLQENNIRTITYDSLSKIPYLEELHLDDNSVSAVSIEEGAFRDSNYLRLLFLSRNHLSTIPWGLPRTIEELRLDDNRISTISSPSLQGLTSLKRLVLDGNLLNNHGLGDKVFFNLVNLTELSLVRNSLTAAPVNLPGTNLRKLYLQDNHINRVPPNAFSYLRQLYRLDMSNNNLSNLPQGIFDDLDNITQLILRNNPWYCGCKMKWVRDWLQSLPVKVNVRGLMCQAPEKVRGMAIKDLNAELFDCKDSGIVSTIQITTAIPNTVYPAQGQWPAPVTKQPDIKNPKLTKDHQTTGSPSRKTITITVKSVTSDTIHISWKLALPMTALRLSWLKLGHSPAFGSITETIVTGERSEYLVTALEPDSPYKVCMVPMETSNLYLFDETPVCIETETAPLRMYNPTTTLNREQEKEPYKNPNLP
- Protocol summary: kinetic affinity measurement with FLRT3-His monomer (Table 1)
So I've got a bunch of binders here, and I need their koff values.
One number for each entry, in s⁻¹.

| Binder | Unit string | Observed value |
| --- | --- | --- |
| 1H5 (antibody, V domains shown, Variable domains only) VH: EVQLQQSGPELVKPGASVKMSCKASGYTFTDYYMNWVKQSHGKSLEWIGRVNPSNGVTSYNQKFKGKAALTVDKSLSTAYMQLNSLTSEDSAVYYCARDFLMDYWGQGTSVTVSS VL: DIVMTQSHKFMSTSVGDRVTITCKASQDVGTAVAWYQQKPGQSPKLLIYWASTRHTGVPDRFTGSGSGTDFTLTISNVQSEDLADYFCQQYSSYPTFGGGTKLEIK | s⁻¹ | 1.6e-05 |
| 20C3 (antibody, V domains shown, Variable domains only) VH: EVKLEESGGGLVQPGGSMKLSCVVSGFTFSNYWMNWVRQSPEKGLEWVAQIRLKSDNYATHYAESVKGRFTISRDDSKSSVYLQMNNLRAEDTGIYYCTGESNIYYGYFDYWGQGTTLTVSS VL: QIVLTQSPAIMSASPGEKVTMTCSASSSVSYMHWYQQKSGTSPKRWIYDTSKLASGVPARFSGSGSGTSYSLTISSMEAEDAATYYCQQWSGNPYTFGGGTKLEIK | s⁻¹ | 0.000207 |

Now let's try a different one.
Fill in koff for record 12A4 (antibody, V domains shown, Variable domains only) VH: EVQLQQSGPELVKPGASVKMSCKASGYTFTDYYMNWVKQSHGKSLEWIGRVNPSNGGTTYNQRFKGKATLTVDESLSTAYMQLNSLTSEDSAVYYCARDFLMDYWGQGTSVTVSS VL: DIVMTQSHKFMSTSVGDRVSITCKASQDVGTAVTWYQQKPGLSPKLLFYWASTRHTGVPDRFTGSGSGTDFTLTISNVQSEDLADYFCHQYSNYPTFGGGTKLEIK 3.24e-05
